Test Protocol: chemical genetic growth profiling, strain panel (AID 1159580);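 also: tested at 20 µM; growth read once vehicle control cultures reached saturation at 30 °C; 1 = growth at the plate median or of vehicle wells; lower values mean less growth of the strain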
Experimental Parameters: S. cerevisiae deletion strains, growth OD, locus YDR388W, stronger effect = lower value
In all, about 5,500 compounds went through this assay and about 2,000 (36%) were called active. Another 18% or so got no clear call; they are omitted. The list shows a part of the results.
Assay Readout: normalized growth

| Compound | Assay Readout | Result Value |
| --- | --- | --- |
| CCC(C)C(=O)O[C@@H]1C[C@@]2(C)[C@H](c3ccoc3)OC(=O)CC23OC2(C)O[C@]14[C@]1(C)[C@@H](CC(=O)OC)C5(C)CC1(O)[C@](O)(C5OC(=O)C1(C)OC1C)[C@@H](OC(C)=O)[C@]34O2 (stereo not given in full) | normalized growth | 1.02 |
| CCC(C)C(=O)O[C@@H]1C[C@@]2(C)[C@H](c3ccoc3)OC(=O)CC23OC2(C)OC34[C@H](OC(=O)C(C)C)[C@@]3(O)[C@@H](OC(=O)C5(C)OC5C)[C@@]5(C)C[C@]3(O)[C@@](C)([C@H]5CC(=O)OC)C14O2 (stereo not given in full) | normalized growth | 1.01 |
| COC(=O)C[C@H]1C2(C)CC34OC5(C)O[C@@]6([C@H](OC(C)=O)C(OC(C)=O)[C@]7(C)C(/C(=C(/O)C(C)C)C(=O)O[C@H]7c7ccoc7)[C@@]6(O5)[C@H](OC(C)=O)[C@@]3(O)C2OC(=O)C(C)C)[C@]14C (stereo not given in full) | normalized growth | 0.994 |
| COc1ccc(C(c2ccc(OC)cc2)C(Cl)(Cl)Cl)cc1 | normalized growth | 0.988 |
| COC(=O)CC1C2(C)CC34OC5(C)OC6(C7/C(=C(/O)C(C)C)C(=O)OC(c8ccoc8)C7(C)C(OC(=O)C(C)C)C(OC)C6(O5)C13C)C(OC)C4(OC)C2OC(C)=O (stereo not given) | normalized growth | 0.995 |

====

Test Protocol: chemical genetic growth profiling, strain panel (AID 1159580);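 also: tested at 20 µM; growth read once vehicle control cultures reached saturation at 30 °C; 1 = growth at the plate median or of vehicle wells; lower values mean less growth of the strain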
Experimental Parameters: S. cerevisiae deletion strains, growth OD, locus YJL095W, strain BCK1, stronger effect = lower value
The campaign covered roughly 5,500 compounds. About 2,000 (36%) were called active. Inconclusive results (about 18%) are left out. Some of the results follow.
Quick reference: normalized growth of the listed items.

| Compound | normalized growth |
| --- | --- |
| CCC1(O)CC(OC2CC(N(C)C)C(OC3CC(O)C(OC4CCC(=O)C(C)O4)C(C)O3)C(C)O2)c2c(cc3c(c2O)C(=O)c2c(O)cccc2C3=O)C1C(=O)OC (stereo unspecified) | 0.983 |
| COc1ccccc1-c1coc2cc(O)ccc2c1=O | 1.04 |
| CC1(C)CC(=O)C=C(Sc2nc3ccccc3o2)C1 | 0.837 |
| COc1cc([C@@H]2c3cc4c(cc3[C@@H](O)C3COC(=O)C32)OCO4)cc(OC)c1O (stereo partly specified) | 1.02 |
| CN(C)CCCC1(c2ccc(F)cc2)OCc2cc(C#N)ccc21 (stereo unspecified) | 1.03 |
| NCCS(=O)(=O)O | 0.998 |
| O=C(c1csc(-c2ccc(Cl)cc2)c1)N1CCCCC1 | 0.714 |
| N#C/C(=N/Nc1ccc(F)cc1)C(=O)c1ccccc1 | 0.731 |
| N/C(CCSc1ccc(Cl)cc1)=N/OC(=O)Nc1ccc(Cl)cc1 | 0.111 |
| Clc1ccc(C(OCCN2CCCCC2)c2ccccc2)cc1 (stereo unspecified) | 0.913 |
| CN1CC(CO)=C[C@@H]2c3cccc4[nH]cc(c34)C[C@H]21 | 0.995 |
| O=[N+]([O-])c1ccc(ON=C2CCCCC2)c([N+](=O)[O-])c1 | 0.568 |
| O=C(NCc1ccc(Cl)c(Cl)c1)c1cccnc1OCC(F)(F)F | 1.02 |
| O=C(ON=C1CCCCC1)c1ccc([N+](=O)[O-])cc1 | 0.771 |
| O=C(NC(=O)c1ccccc1Cl)Nc1ccc(OC(F)(F)F)cc1 | 1.06 |
| N#C/C(=N/Nc1ccccc1)C(=O)c1ccccc1OC(F)(F)F | 0.891 |
| NCCC(O)C(=O)NC1CC(N)C(OC2OC(CN)C(O)C(O)C2N)C(OC2OC(CO)C(O)C2O)C1O (stereo unspecified) | 1.06 |
| CC(=O)c1ccc(Cl)c(NS(=O)(=O)c2cc(Cl)c(Cl)cc2Cl)c1 | 0.636 |
| COc1ccc2c(=O)c(-c3ccc(O)cc3)coc2c1 | 0.962 |
| COc1ccc(-c2coc3cc(O)ccc3c2=O)c(O)c1O | 1.01 |
| COc1cccc(C2CCN(C(=O)c3cccc4ccccc34)CC2)c1 | 0.973 |
| Cc1ccc(C(=O)Nc2ccc(S(=O)(=O)O)c3cc(S(=O)(=O)O)cc(S(=O)(=O)O)c23)cc1NC(=O)c1cccc(NC(=O)Nc2cccc(C(=O)Nc3cc(C(=O)Nc4ccc(S(=O)(=O)O)c5cc(S(=O)(=O)O)cc(S(=O)(=O)O)c45)ccc3C)c2)c1 | 1.09 |
| CCCN(CCC)C(=S)NC(=O)c1cccc([N+](=O)[O-])c1 | 0.982 |
| Clc1ccc(C(c2ccc(Cl)cc2)C(Cl)(Cl)Cl)cc1 | 1.02 |
| NC(=O)c1ccc[n+]([C@@H]2O[C@H](COP(=O)([O-])OP(=O)(O)OC[C@H]3O[C@@H](n4cnc5c(N)ncnc54)[C@H](OP(=O)(O)O)[C@@H]3O)[C@@H](O)[C@H]2O)c1 | 1.03 |
| COC(=O)CC1C2(C)CC34OC5(C)OC6(C7/C(=C(/O)C(C)C)C(=O)OC(c8ccoc8)C7(C)C(OC(=O)C(C)C)C(OC)C6(O5)C13C)C(OC)C4(OC)C2OC(C)=O (stereo unspecified) | 1.03 |
| Oc1ccc2c(c1)O[C@H](c1ccc(O)c(O)c1)[C@@H](O)C2 | 1.08 |
| COc1ccc(-c2coc3cc(O)ccc3c2=O)c(OC)c1 | 0.976 |
| O=c1cccc2ccc(O)c(O)c2c1O | 0.0994 |
| CC(C)c1ccc(COC(=O)Nc2ccc(CSc3ccc(Cl)cc3)o2)cc1 | 0.855 |
| COc1ccc([C@H]2Oc3c(I)c(OC)cc(OC)c3C[C@@H]2O)cc1OC | 1.05 |
| CCC(C)C(=O)OC1CC2(C)C(c3ccoc3)OC(=O)CC23OC2(C)OC34C(OC(=O)C(C)C)C3(O)C(OC(=O)C5(C)OC5C)C5(C)CC3(O)C(C)(C5C(=O)OC)C14O2 (stereo unspecified) | 1.04 |
| Cc1cc(C(=O)NNS(=O)(=O)c2ccc(F)c(Cl)c2)nn1-c1c(Cl)cc(Cl)cc1Cl | 1.07 |
| CC(C)(C)c1ccc(N/N=C(\C#N)C(N)=O)cc1 | 0.166 |
| CC[C@H]1OC(=O)[C@H](C)[C@@H](O[C@H]2C[C@@](C)(OC)[C@@H](O)[C@H](C)O2)[C@H](C)[C@@H](O[C@@H]2O[C@H](C)C[C@H](N(C)C)[C@H]2O)[C@](C)(OC)C[C@@H](C)C(=O)[C@H](C)[C@@H](O)[C@]1(C)O | 0.971 |
| Oc1cc(O)c2c(c1)OC(c1cc(O)c(O)c(O)c1)C(O)C2c1c(O)cc(O)c2c1OC(c1cc(O)c(O)c(O)c1)C(O)C2c1c(O)cc(O)c2c1OC(c1cc(O)c(O)c(O)c1)C(O)C2 (stereo unspecified) | 0.845 |
